# assay system: T1, orthogonal hCD122 receptor (hoRb), hCD122 with H133D and Y134F (human, UniProt P14784 27-550)
# T1 sequence: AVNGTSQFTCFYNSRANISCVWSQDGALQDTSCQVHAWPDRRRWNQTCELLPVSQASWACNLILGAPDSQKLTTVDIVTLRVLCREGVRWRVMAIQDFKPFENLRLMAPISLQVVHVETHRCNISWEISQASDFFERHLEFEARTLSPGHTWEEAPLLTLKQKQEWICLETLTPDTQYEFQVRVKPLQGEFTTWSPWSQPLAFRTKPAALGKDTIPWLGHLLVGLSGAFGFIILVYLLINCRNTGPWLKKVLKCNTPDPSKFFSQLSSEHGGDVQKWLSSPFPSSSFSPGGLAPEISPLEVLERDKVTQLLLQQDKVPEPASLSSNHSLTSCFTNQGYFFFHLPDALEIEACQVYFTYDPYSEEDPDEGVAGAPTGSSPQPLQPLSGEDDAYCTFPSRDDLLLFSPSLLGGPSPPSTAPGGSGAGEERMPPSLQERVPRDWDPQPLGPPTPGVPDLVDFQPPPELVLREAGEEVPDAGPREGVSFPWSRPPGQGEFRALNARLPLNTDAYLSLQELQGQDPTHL
# experiment summary: cell-based or functional assay
result type: 3F8 Ortho Proliferation Signal 1:2 (cts/min)

SNVLKA (ligand) APTSSSTKKTQLQLSNLLVLLKAILNGINNYKNPKLTRMLTFKFYMPKKATELKHLQCLEEELKPLEEVLNLAQSKNFHLRPRDLISNINVIVLELKGSETTFMCEYADETATIVEFLNRWITFCQSIISTLT	31400
ΔL14, SQVLKA (ligand) APTSSSTKKTQLQSQLLVLLKAILNGINNYKNPKLTRMLTFKFYMPKKATELKHLQCLEEELKPLEEVLNLAQSKNFHLRPRDLISNINVIVLELKGSETTFMCEYADETATIVEFLNRWITFCQSIISTLT	30300
SQVLKY (ligand) APTSSSTKKTQLQLSQLLVLLKYILNGINNYKNPKLTRMLTFKFYMPKKATELKHLQCLEEELKPLEEVLNLAQSKNFHLRPRDLISNINVIVLELKGSETTFMCEYADETATIVEFLNRWITFCQSIISTLT	39100
L18Q, SQVLKA (ligand) APTSSSTKKTQLQLSQLQVLLKAILNGINNYKNPKLTRMLTFKFYMPKKATELKHLQCLEEELKPLEEVLNLAQSKNFHLRPRDLISNINVIVLELKGSETTFMCEYADETATIVEFLNRWITFCQSIISTLT	40800

[A] ΔD20, SQV_KA (ligand) APTSSSTKKTQLQLSQLLVLKAILNGINNYKNPKLTRMLTFKFYMPKKATELKHLQCLEEELKPLEEVLNLAQSKNFHLRPRDLISNINVIVLELKGSETTFMCEYADETATIVEFLNRWITFCQSIISTLT
[B] Q126D, SQVLKA (ligand) APTSSSTKKTQLQLSQLLVLLKAILNGINNYKNPKLTRMLTFKFYMPKKATELKHLQCLEEELKPLEEVLNLAQSKNFHLRPRDLISNINVIVLELKGSETTFMCEYADETATIVEFLNRWITFCDSIISTLT
[C] Q126H, SQVLKA (ligand) APTSSSTKKTQLQLSQLLVLLKAILNGINNYKNPKLTRMLTFKFYMPKKATELKHLQCLEEELKPLEEVLNLAQSKNFHLRPRDLISNINVIVLELKGSETTFMCEYADETATIVEFLNRWITFCHSIISTLT
// smallest 3F8 Ortho Proliferation Signal 1:2 at index 0, largest at the end Respond with an ordered listing of the labels, as requested.
B, A, C
(B: 294 cts/min, A: 1010 cts/min, C: 36500 cts/min)
